These measurements were taken from patent US20140120095A1.

Recorded pIC50 for the following binders
Target: T1, mouse DLL4, full length, overexpressed on CHO cells (mouse, UniProt Q9JI71 27-686)
T1 construct: whole, on cells; also called mDLL4; CHO-mDLL4
T1 sequence (Q9JI71 27-686): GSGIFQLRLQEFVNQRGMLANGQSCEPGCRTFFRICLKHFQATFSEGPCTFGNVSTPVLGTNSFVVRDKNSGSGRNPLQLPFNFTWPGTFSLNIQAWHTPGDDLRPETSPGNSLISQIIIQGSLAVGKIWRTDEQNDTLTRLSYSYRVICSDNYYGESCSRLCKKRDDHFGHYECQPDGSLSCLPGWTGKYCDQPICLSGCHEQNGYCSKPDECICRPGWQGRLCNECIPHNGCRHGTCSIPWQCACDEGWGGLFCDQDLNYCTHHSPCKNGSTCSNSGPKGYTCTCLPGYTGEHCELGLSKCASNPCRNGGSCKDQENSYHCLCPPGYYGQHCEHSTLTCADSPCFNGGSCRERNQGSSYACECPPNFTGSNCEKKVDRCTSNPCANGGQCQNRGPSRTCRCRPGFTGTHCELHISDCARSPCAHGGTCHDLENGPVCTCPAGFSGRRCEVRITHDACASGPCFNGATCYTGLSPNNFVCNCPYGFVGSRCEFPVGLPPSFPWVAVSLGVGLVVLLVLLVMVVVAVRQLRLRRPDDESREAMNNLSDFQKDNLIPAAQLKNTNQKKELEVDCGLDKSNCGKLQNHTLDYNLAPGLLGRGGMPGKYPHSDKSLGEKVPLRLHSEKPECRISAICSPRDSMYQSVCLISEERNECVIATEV
Assay: FMAT, hNotch1-Fc on CHO-mDLL4, +25 uM HSA
pIC50: −log10 of the molar value.
quantity measured: pIC50

>>> value_measured("VEGFDLLBII012 (bispecific antibody, PEGylated at the Cys at position 15 of the 35 Gly-Ser linker, VEGFBII23B04 - 35GS(Cys15) - DLLBII136C07) EVQLVESGGGLVQTGDSLRLSCEVSGRTFSSYSMGWFRQAQGKEREFVVAISKGGYKYDSVSLEGRFTISKDNAKNTVYLQINSLKPEDTAVYYCASSRAYGSSRLRLADTYEYWGQGTQVTVSSGGGGSGGGGSGGGGCGGGGSGGGGSGGGGSGGGGSEVQLVESGGGLVQPGGSLRLSCAASGFTFGSYDMSWVRRSPGKGPEWVSSINSGGGSTYYADYVKGRFTISRDNAKNTLYLQMNSLKPEDTAVYYCAADRYIWARQGEYWGAYEYDYWGQGTQVTVSS")
6.99
>>> value_measured("VEGFDLLBII013 (bispecific antibody, PEGylated at the Cys at position 15 of the 35 Gly-Ser linker, VEGFBII23B04 - 35GS(Cys15) - DLLBII129B05) EVQLVESGGGLVQTGDSLRLSCEVSGRTFSSYSMGWFRQAQGKEREFVVAISKGGYKYDSVSLEGRFTISKDNAKNTVYLQINSLKPEDTAVYYCASSRAYGSSRLRLADTYEYWGQGTQVTVSSGGGGSGGGGSGGGGCGGGGSGGGGSGGGGSGGGGSEVQLVESGGGLVQAGGSLRLSCAASGRTFSSYAMAWYRQAPGKEREYVAAIRWSGGTAYYADSVQGRFTISRDNAKNTVYLQMNSLKPEDTAVYYCANRAPDTRLAPYEYDHWGQGTQVTVSS")
7.62
>>> value_measured("DLLBII136C07 (VHH, not shown: small tags and cut ends) VHH: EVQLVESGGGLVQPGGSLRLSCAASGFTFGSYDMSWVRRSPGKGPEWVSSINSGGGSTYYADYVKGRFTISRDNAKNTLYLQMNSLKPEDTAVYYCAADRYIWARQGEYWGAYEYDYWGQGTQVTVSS")
7.75
>>> value_measured("DLLBII129B05 (VHH, not shown: small tags and cut ends) VHH: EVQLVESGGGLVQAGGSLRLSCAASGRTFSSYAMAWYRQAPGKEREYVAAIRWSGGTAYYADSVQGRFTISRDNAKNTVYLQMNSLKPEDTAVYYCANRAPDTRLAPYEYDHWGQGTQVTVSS")
8.43
